System: HL-1
Assay: relative cell viability (CellTiter-Glo) vs DMSO control (% of DMSO control); higher = more viable cells
Settings: oxygen condition: normoxia 72 h; 5000 nM
Structures can show the parent of a compound that is named as a salt.
ENDPOINT LABEL: relative cell viability

Example entries begin here.
CC[N+]1(C)CCCC(OC(=O)C(O)(c2ccccc2)c2ccccc2)C1 (configuration not stated) [Pipenzolate Bromide]	116
CCN(C)C(=O)Oc1cccc([C@H](C)N(C)C)c1 [Rivastigmine tartrate]	105

Record C[C@]12C/C(=C/O)C(=O)C[C@@H]1CC[C@@H]1[C@@H]2CC[C@@]2(C)[C@H]1CC[C@]2(C)O [Oxymetholone] ; system HL-1; relative cell viability = 115

Measured on HL-1, CC(=O)O[C@@]12CO[C@@H]1C[C@H](O)[C@@]1(C)C(=O)[C@H](O)C3=C(C)[C@@H](O)C[C@@](O)([C@@H](OC(=O)c4ccccc4)[C@H]21)C3(C)C has a documented relative cell viability of 124

Reported HL-1 relative cell viability for item C=CCN1CC[C@]23c4c5ccc(O)c4O[C@H]2C(=O)CC[C@@]3(O)[C@H]1C5 [Naloxone HCl] was 113

HL-1 data for OC(c1ccccc1)(c1ccccc1)C1CCNCC1 [Azacyclonol] ; its relative cell viability: 115

Entry O=C(O[C@H]1C[N+]2(CCCOc3ccccc3)CCC1CC2)C(O)(c1cccs1)c1cccs1 [Aclidinium Bromide] , tested on HL-1, has a reported relative cell viability of 121

* * *

System: HL-1
Experiment: relative cell viability (CellTiter-Glo) vs DMSO control (% of DMSO control); higher = more viable cells
Details: oxygen condition: hypoxia 48 h (1% O2) + reoxygenation 24 h; 1000 nM
Where a name gives a salt, the structure may show the parent alone.
# reported relative cell viability; entries follow
A bare number is all that is needed in reply.

Sample records with relative cell viability:
COc1ccc(OC)c(C(O)C(C)N)c1 (stereo unspecified) [Methoxamine HCl]	101
CC(=O)O[C@H]1C[C@@H]2CC[C@@H]3[C@H](CC[C@@]4(C)[C@H]3C[C@H]([N+]3(C)CCCCC3)[C@@H]4OC(C)=O)[C@@]2(C)C[C@@H]1[N+]1(C)CCCCC1 [Pancuronium]	102
CN1[C@@H]2CC[C@H]1C[C@@H](OC(=O)[C@H](CO)c1ccccc1)C2 [Hyoscyamine]	109
CNC1CC(N)C(O)C(OC2OC(CO)C(O)C3OC4(OC(C(N)CO)C(O)C(O)C4O)OC23)C1O (stereo unspecified) [Hygromycin B]	107
CCC(COC(=O)c1cc(OC)c(OC)c(OC)c1)(c1ccccc1)N(C)C (stereo unspecified) [Trimebutine]	100

Reported relative cell viability of O=C(O)c1nn(Cc2ccc(Cl)cc2Cl)c2ccccc12 [Lonidamine] : 109

# relative cell viability of CC[N+]1(C)CCCC(OC(=O)C(O)(c2ccccc2)c2ccccc2)C1 (stereo unspecified) [Pipenzolate Bromide] = 102

GET /value?item= CNCC(=O)c1ccc(O)c(O)c1 [Adrenalone HCl] &field=relative cell viability returns 106

// relative cell viability value for C=CC[C@]1(O)CC[C@H]2[C@@H]3CCC4=CC(=O)CCC4=C3C=C[C@@]21C [Altrenogest] : 106

The reported value for CN1c2ccccc2C(NCCCCCCC(=O)O)c2ccc(Cl)cc2S1(=O)=O (stereo unspecified) [Tianeptine sodium] in terms of relative cell viability is 108

So for C[C@]12CC[C@H]3[C@@H](CC[C@@]45O[C@@H]4C(O)=C(C#N)C[C@]35C)[C@@H]1CC[C@@H]2O [Trilostane] , the logged relative cell viability turned out to be 108

Given item CC(=O)O[C@@]12CO[C@@H]1C[C@H](O)[C@@]1(C)C(=O)[C@H](O)C3=C(C)[C@@H](O)C[C@@](O)([C@@H](OC(=O)c4ccccc4)[C@H]21)C3(C)C , the value recorded as its relative cell viability is 105

The compound listed as C[N+]1(C)[C@@H]2C[C@@H](OC(=O)[C@H](CO)c3ccccc3)C[C@H]1[C@@H]1O[C@@H]12 [Methscopolamine] shows relative cell viability equal to 100

Lookup result for O=P1(N(CCCl)CCCl)NCCCO1 (stereo unspecified) [Cyclophosphamide monohydrate] ; measured relative cell viability: 97.1

Measured relative cell viability of CN1[C@@H]2CC(O)C[C@H]1[C@@H]1O[C@@H]12 (stereo partly specified) [Scopine] : 100

Sample Cc1cccc(C)c1NC(=O)CN1CCCC1=O [Nefiracetam] ; relative cell viability observed: 102
